- System: Plasmodium falciparum
- measurement_protocol: Screen against P. falciparum Asexual Blood Stage (ABS), at 5uM
- Assay type: functional, Dd2
- experimental_setup: tested at 5 uM
Screen size: about 65,000 compounds; about 2,100 (3.2%) showed an effect of 50% or more. The median lay at about -52%. This is one part of a sample in which strong results are shown more often than they occur.
// values below are reported INHIBITION
Numbers only here, please. The scale is %.

Example entries and their recorded answers appear below.
molecule	target_under_test	u	INHIBITION
CN(Cc1ccco1)C(=O)C1CCCc2ccccc21 (stereo not drawn)	Plasmodium falciparum	%	-142
c1cn(Cc2ccc(N3CCCN(C4CCCC4)CC3)nc2)cn1	Plasmodium falciparum	%	-80
Cc1nnc2n1CCN(Cc1ncc(-c3ccc(F)cc3)o1)C2	Plasmodium falciparum	%	8.55
COc1ccc(COCC(O)CNC(=O)c2ccncc2)cc1 (stereo not drawn)	Plasmodium falciparum	%	-119

Now for the molecule whose INHIBITION we want.
Sample COc1cc(C(=O)N2CC3(CCNCC3)c3cc(Cl)ccc32)ccn1 , system: Plasmodium falciparum. Its INHIBITION is 65.4
